# ASSAY_METHOD_TEXT: THP1-Dual cytotoxicity (Cell Titer Glo, ATP)
# Type: cell-based, human
# CONDITION_INFO: human, THP1-Dual cells; read-out: Selectivity Index (CC50/EC50) (text: toxicity index)
REPORTED_METRIC: selectivity ratio
API doc: respond with a numeric literal and nothing else, no unit.

Data request: Request the reported selectivity ratio associated with CC(C)c1nnc(N2C(=O)c3oc4ccccc4c(=O)c3C2c2ccccc2F)s1 (stereo not shown) [AV-C, reference compound]
Data returned: 1.5

----------
# ASSAY_METHOD_TEXT: J774-Dual cytotoxicity
# Format: cell-based, mouse
# CONDITION_INFO: mouse, J774-Dual cells, Mouse Reporter Cell Line; read-out: J774 cytotox CC50
Catalogue of molecules with associated CC50

O=C(Nc1ccc(N2CCN(C(=O)c3cccs3)CC2)cc1)c1ccc(Br)cc1; > 25 µM

Turning now to a further record.
Data request: Request the reported CC50 associated with `CCOc1cccc(COc2ccc(C(=O)Nc3ccc(N4CCN(C(=O)c5cccs5)CC4)cc3)cn2)c1`
Data returned: > 10 µM

----------
# ASSAY_METHOD_TEXT: THP1-Dual cytotoxicity (Cell Titer Glo, ATP)
# Assay type: cell-based, human
# CONDITION_INFO: human, THP1-Dual cells, Human Reporter Cell Line THP1; read-out: Thp1 cytotox CC50
Catalogue of compounds with associated CC50

Cc1cc2nc(-c3ccc(C)c(NC(=O)c4ccc(C(F)(F)F)c([N+](=O)[O-])c4)c3)oc2cc1C [ND-75]; > 25 µM
Cc1cc2nc(-c3ccc(C)c(Nc4[nH]c(=O)[nH]c(=O)c4[N+](=O)[O-])c3)oc2cc1C [ND-56]; > 25 µM
CCOc1ccc(C(=O)Nc2cccc(-c3nc4cc(C(C)C)ccc4o3)c2)cc1[N+](=O)[O-] [ND-17]; > 25 µM
Cc1cc2nc(-c3ccc(C)c(NC(=O)c4ccc(OCc5ccccc5)cc4)c3)oc2cc1C [ND-105]; > 10 µM

Data request: Request the reported CC50 associated with CCOc1ccc(C(=O)Nc2ccc3oc(-c4cccnc4)nc3c2)cc1[N+](=O)[O-] [ND-44]
Data returned: > 25 µM

Data request: Request the reported CC50 associated with Cc1ccc(C(=O)Nc2nc(C)c(-c3ccccc3)s2)cc1[N+](=O)[O-] [ND-32]
Data returned: > 25 µM

Data request: Request the reported CC50 associated with Cc1ccc(-c2nc3cc(Cl)ccc3o2)cc1NC(=O)c1cc([N+](=O)[O-])c(C)c([N+](=O)[O-])c1 [ND-61]
Data returned: > 25 µM

Data request: Request the reported CC50 associated with COc1ccc(C(=O)Nc2cc(-c3nc4ccccc4s3)ccc2C)cc1OC [ND-66]
Data returned: 17.9 µM

----------
# ASSAY_METHOD_TEXT: THP1-Dual cytotoxicity (Cell Titer Glo, ATP)
# Format: cell-based, human
# CONDITION_INFO: human, THP1-Dual cells, Human Reporter Cell Line; read-out: Thp1 cytotox CC50
Catalogue of compounds with associated CC50

Solved entries:
CCOc1ccc(C(=O)Nc2ccc(N3CCN(C(=O)c4cccs4)CC3)c(Cl)c2)cc1Br; > 25 µM
O=C(c1cccs1)N1CCN(Cc2cn(Cc3ccc(Cl)cc3)nn2)CC1; > 25 µM
O=C(Nc1ccc(N2CCN(C(=O)c3cccs3)CC2)cc1)c1ccc(Br)o1; > 25 µM
O=C(Nc1ccc(N2CCN(C(=O)c3cccs3)CC2)cc1)c1ccc(OCc2ccc(OC(F)(F)F)cc2)cc1; > 25 µM
O=C(Nc1ccc(N2CCN(C(=O)c3cccs3)CC2)c(Cl)c1)c1ccc(OCc2ccccc2)cc1; > 10 µM

Data request: Request the reported CC50 associated with `O=C(Nc1ccc(N2CCN(C(=O)c3cccs3)CC2)cc1)c1ccc(-c2ccccc2)nc1`
Data returned: > 25 µM

Data request: Request the reported CC50 associated with `COC(=O)COc1cccc(NC(=O)c2cccc(NC(=O)c3cccs3)c2)c1`
Data returned: > 25 µM

Data request: Request the reported CC50 associated with `O=C(Nc1ccc(N2CCN(C(=O)c3cccs3)CC2)cc1)c1ccc(N2CCCCC2)c([N+](=O)[O-])c1`
Data returned: > 10 µM

----------
Catalogue of molecules with associated log10 EC50
# Test system: IRF-Lucia luciferase reporter (ISRE) in J774-Dual cells
# ASSAY_METHOD_TEXT: J774-Dual IRF-Lucia luciferase reporter assay (ISRE activation)
# Format: cell-based, mouse
# CONDITION_INFO: Mus musculus, J774, Mouse Reporter Cell Line, 8-point dose response; read-out: J774 IRF EC50
// do not treat as linear: log10 of EC50, unit µM

Solved entries:
Cc1ccc(COc2ccc(C(=O)Nc3ccc(N4CCN(C(=O)c5cccs5)CC4)cc3)cc2)cc1; 0.64
Cc1cccc(C(=O)Nc2ccc(N3CCN(C(=O)c4cccs4)CC3)cc2)c1C; 1.12
COc1cccc(COc2ccc(C(=O)Nc3ccc(N4CCN(C(=O)c5cccs5)CC4)cc3)cc2)c1; 0.67
O=C(Nc1ccc(N2CCN(C(=O)c3cccs3)CC2)cc1)c1ccc2ccccc2c1; 0.64
COc1ccc(C(=O)Nc2ccc(OCc3ccccc3)cc2)cc1[N+](=O)[O-]; 0.87

Data request: Request the reported log10 EC50 associated with `CCOc1cccc(COc2ccc(C(=O)Nc3ccc(N4CCN(C(=O)c5cccs5)CC4)cc3)cc2)c1`
Data returned: 0.59

Data request: Request the reported log10 EC50 associated with `O=C(Nc1ccc(N2CCN(C(=O)c3cccs3)CC2)cc1)c1ccc(-c2ccccc2)cn1`
Data returned: 0.99

Data request: Request the reported log10 EC50 associated with `O=C(Nc1ccc(N2CCN(C(=O)c3cccs3)CC2)cc1)c1sc2cc(Cl)ccc2c1Cl`
Data returned: 0.62

Data request: Request the reported log10 EC50 associated with `O=C(Nc1ccc(N2CCN(C(=O)c3cccs3)CC2)cc1)c1ccc(OCc2ccccc2)cn1`
Data returned: 0.25

Data request: Request the reported log10 EC50 associated with `O=C(Nc1ccc(N2CCN(C(=O)c3cccs3)CC2)cc1)c1cccc2c(Br)cccc12`
Data returned: 0.00

Data request: Request the reported log10 EC50 associated with `O=C(Nc1ccc(N2CCN(C(=O)c3cccs3)CC2)cc1)c1ccc(Cl)c2ccccc12`
Data returned: -0.09

Data request: Request the reported log10 EC50 associated with `O=C(Nc1ccc(N2CCN(C(=O)c3cccs3)CC2)cc1)c1ccc(Br)cc1`
Data returned: 0.72

----------
# ASSAY_METHOD_TEXT: THP1-Dual cytotoxicity (Cell Titer Glo, ATP)
# Format: cell-based, human
# CONDITION_INFO: human, THP1-Dual cells, Human Reporter Cell Line; read-out: Thp1 cytotox CC50
REPORTED_METRIC: CC50

Solved entries:
Cc1ccccc1C(=O)N1CCN(c2ccc(NC(=O)c3ccc(OCc4ccccc4)cc3)cc2)CC1; > 25 µM
COC(=O)c1ccc(N2CCN(C(=O)c3cccs3)CC2)cc1; > 25 µM
Cc1cccc(C(=O)Nc2ccc(N3CCN(C(=O)c4cccs4)CC3)cc2)c1C; > 25 µM

Data request: Request the reported CC50 associated with `O=C(Nc1ccc(N2CCN(C(=O)c3cccs3)CC2)c(Cl)c1)c1cc([N+](=O)[O-])ccc1N1CCOCC1`
Data returned: > 10 µM

Data request: Request the reported CC50 associated with `COC(=O)Cc1ccc(NC(=O)c2ccc(NC(=O)c3ccco3)cc2)cc1`
Data returned: > 25 µM

----------
Catalogue of compounds with associated CC50
# ASSAY_METHOD_TEXT: THP1-Dual cytotoxicity (Cell Titer Glo, ATP)
# Assay type: cell-based, human
# CONDITION_INFO: human, THP1-Dual cells, Human Reporter Cell Line; read-out: Thp1 cytotox CC50

O=C(Nc1ccc(N2CCN(C(=O)c3ccncc3)CC2)cc1)c1ccc(OCc2ccccc2)cc1 [NA-37]; > 25 µM
COc1ccc(C(=O)Nc2ccc(N3CCN(C(=O)c4cccs4)CC3)cc2)c2ccccc12 [NA-15]; > 25 µM
O=C(NCCC(=O)N1CCN(C(=O)c2cccs2)CC1)c1ccc(OCc2ccccc2)cc1 [NA-54]; > 25 µM
CC(Oc1ccc(C(=O)Nc2ccc(N3CCN(C(=O)c4cccs4)CC3)cc2)cc1)c1ccccc1 (centres unmarked) [NA-22]; > 25 µM
COc1cccc(Cn2cc(CN3CCN(C(=O)c4cccs4)CC3)nn2)c1 [NA-57]; > 25 µM

Turning now to a further record.
Data request: Request the reported CC50 associated with O=C(Nc1ccc(N2CCN(C(=O)c3cccs3)CC2)cc1)c1cncc(-c2ccccc2)c1 [NA-40]
Data returned: > 25 µM

----------
# ASSAY_METHOD_TEXT: J774-Dual cytotoxicity
# Assay type: cell-based, mouse
# CONDITION_INFO: mouse, J774-Dual cells, Mouse Reporter Cell Line; read-out: J774 cytotox CC50
REPORTED_METRIC: CC50

Solved entries:
O=C(Nc1ccc(N2CCN(C(=O)c3cccs3)CC2)cc1)c1cccc(Oc2ccccc2)c1; > 10 µM
CC(Oc1ccc(C(=O)Nc2ccc(N3CCN(C(=O)c4cccs4)CC3)cc2)cc1)c1ccccc1 (stereo not drawn); > 25 µM
CCOc1ccc(C(=O)Nc2ccc(N3CCN(C(=O)c4cccs4)CC3)c(Cl)c2)cc1Br; > 25 µM

Data request: Request the reported CC50 associated with `O=C(Nc1ccc(N2CCN(C(=O)c3cccs3)CC2)cc1)c1ccc2ccccc2c1`
Data returned: > 25 µM

Data request: Request the reported CC50 associated with `CCOc1ccc(C(=O)Nc2ccc(N3CCN(C(=O)c4cccs4)CC3)cc2)cc1Br`
Data returned: 40.7 µM

Data request: Request the reported CC50 associated with `O=C(Nc1ccc(-c2ccccc2)cc1)Nc1ccc(N2CCN(C(=O)c3cccs3)CC2)cc1`
Data returned: > 10 µM

Data request: Request the reported CC50 associated with `O=C(Nc1ccc(N2CCN(C(=O)c3cccs3)CC2)cc1)c1ccc(-c2ccccc2)nc1`
Data returned: > 25 µM

Data request: Request the reported CC50 associated with `O=C(Nc1ccc(N2CCN(C(=O)c3ccccc3Cl)CC2)cc1)c1ccc(OCc2ccccc2)cc1`
Data returned: > 25 µM

Data request: Request the reported CC50 associated with `COc1cccc(COc2ccc(C(=O)Nc3ccc(N4CCN(C(=O)c5cccs5)CC4)cc3)cc2)c1`
Data returned: 36.2 µM

Data request: Request the reported CC50 associated with `O=C(Nc1ccc(N2CCN(C(=O)c3cccs3)CC2)cc1)c1cc(Cl)ccc1Cl`
Data returned: > 25 µM

Data request: Request the reported CC50 associated with `O=C(Nc1ccc(N2CCN(C(=O)c3cccs3)CC2)c(Cl)c1)c1cc([N+](=O)[O-])ccc1N1CCOCC1`
Data returned: > 10 µM

Data request: Request the reported CC50 associated with `CCOc1ccc(C(=O)Nc2ccc(N3CCN(C(=O)c4cccs4)CC3)cc2)cc1[N+](=O)[O-]`
Data returned: > 10 µM
